- EXPERIMENTAL_TARGET: InhA (Mycobacterium tuberculosis, UniProt P9WGR1)
- Sequence (P9WGR1 whole entry, looked up): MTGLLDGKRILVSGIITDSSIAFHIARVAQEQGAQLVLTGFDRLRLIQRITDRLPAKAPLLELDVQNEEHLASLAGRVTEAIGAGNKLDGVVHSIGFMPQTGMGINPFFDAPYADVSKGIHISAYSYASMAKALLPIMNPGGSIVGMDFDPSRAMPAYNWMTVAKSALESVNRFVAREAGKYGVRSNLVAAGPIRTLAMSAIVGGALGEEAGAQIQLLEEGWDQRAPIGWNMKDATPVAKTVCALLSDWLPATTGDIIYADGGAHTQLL
- PROTOCOL_TEXT: InhA enzymatic assay (NADH oxidation at 340 nm, 2-trans-octanoyl-CoA substrate)
- Assay type: biochemical
- ASSAY_CONDITIONS: supplementary CSV; read-out: % inhibition
Quick rule: inhibition at 100 µM of at least 20% means rule met, below that means rule not met.

Reference set (6 entries):
Data request: Identify whether the reported inhibition at 100 µM of the following compound is 20% or greater: `NCc1cccc(NS(=O)(=O)c2cc3ccccc3o2)c1`
Data returned: rule met

Data request: State whether the measured inhibition at 100 µM reaches 20%, counting equality as reaching it, for `NCc1cccc(NS(=O)(=O)c2cc3ccccc3s2)c1`
Data returned: rule met

Data request: Say whether `O=S(=O)(/C=C/c1cccc(C(F)(F)F)c1)Nc1cccnc1` shows inhibition at 100 µM of 20% or more.
Data returned: rule not met

Data request: Please tell me: is the compound `COc1ccc(NS(=O)(=O)/C=C/c2cccc(C(F)(F)F)c2)cc1` at or over 20% in terms of inhibition at 100 µM?
Data returned: rule not met

Data request: For this compound, is measured inhibition at 100 µM 20% or higher? `COC(=O)Cc1ccc(NS(=O)(=O)/C=C/c2cccc(C(F)(F)F)c2)cc1`
Data returned: rule met

Data request: Reported inhibition at 100 µM at or above 20%? `O=S(=O)(/C=C/c1cccc(C(F)(F)F)c1)Nc1ccc2c(c1)CNCC2`
Data returned: rule not met

Others:
Data request: Form field: inhibition at 100 µM at least 20%? Entry: `COC(=O)c1ccc(NS(=O)(=O)/C=C/c2cccc(C(F)(F)F)c2)cc1`
Data returned: rule not met

Data request: Check this compound for inhibition at 100 µM at or above 20%: `NCc1ccc(NS(=O)(=O)/C=C/c2cccc(C(F)(F)F)c2)cc1`
Data returned: rule met

Data request: Answer whether inhibition at 100 µM of `CC(C)(C)c1ccc(S(=O)(=O)Nc2cccc(CN)c2)cc1` is greater than or equal to 20%.
Data returned: rule met

* * *

- EXPERIMENTAL_TARGET: InhA (Mycobacterium tuberculosis)
- PROTOCOL_TEXT: Differential scanning fluorimetry (fluorescence-based thermal-shift assay)
- Assay type: binding
- ASSAY_CONDITIONS: fragments 5 mM, InhA 10 μM, NAD+ 1 mM
QUANTITY_NAME: ΔTm (thermal shift of InhA)

Data request: May I ask what ΔTm (thermal shift of InhA) has been recorded for O=C(O)c1cc2ccccc2cc1O [compound 3, 3-hydroxy-2-naphthoic acid] ?
Data returned: +4.2 °C

Data request: Please give the measured ΔTm (thermal shift of InhA) for this compound: `O=C(O)c1ccccc1-n1cccn1`
Data returned: +6.0 °C

Data request: Bench note: what ΔTm (thermal shift of InhA) did `O=C(O)c1ccccc1C(=O)c1ccc(Cl)c([N+](=O)[O-])c1` show?
Data returned: +4.2 °C

Next:
Data request: Which ΔTm (thermal shift of InhA) reading was recorded for the compound `O=C(O)CCc1cccc(Cl)c1` ?
Data returned: +3.0 °C
